Tested on: Coronary blood flow amount
MEASUREMENT DESCRIPTION: Selectivity in cerebral hyperkinemic action: coronary blood flow amount (electromagnetic flow meter, left coronary artery circumflex ramus)
Format: in vivo
RUN PARAMETERS: dogs, intravenous; dose at which the rate of increase is 200%
Could you please report measured Coronary blood flow amount ED200 for the items listed next?
The figure you give is taken to be in µg/kg body weight; do not add the unit.

Qu. What measured Coronary blood flow amount ED200 goes with COC(=O)C1=C(C)NC(C)=C(C(=O)OCCc2ccc(N3CCN(C(c4ccccc4)c4ccccc4)CC3)cc2)C1c1cccc([N+](=O)[O-])c1 (stereo not shown) ?
Ans. 75

Qu. # query: Coronary blood flow amount ED200 of entry COC(=O)C1=C(C)NC(C)=C(C(=O)OCCc2ccc(N3CCN(C(c4ccccc4)c4ccccc4)CC3)cc2)C1c1cc(C#N)ccn1 (stereo not shown)
Ans. 48

Qu. # get_value(readout='Coronary blood flow amount ED200', item= COCCOC(=O)C1=C(C)NC(C)=C(C(=O)OC(C)C)C1c1cccc([N+](=O)[O-])c1 (stereo not shown) [Nimodipine, reference compound] )
Ans. 16

Qu. Please report the recorded Coronary blood flow amount ED200 for COC(=O)C1=C(C)NC(C)=C(C(=O)OCCN(C)Cc2ccccc2)C1c1cccc([N+](=O)[O-])c1 (stereo not shown) [Nicardipine, reference compound] .
Ans. 9.7

Ref: patent EP0342577B1
